# Experimental Details: caspase-8 TRAIL sensitization, hit retest, confirmation, cell-based, NB7+caspase-8, with/without TRAIL, luminescence panel (AID 651596)
# Settings: NB7 neuroblastoma + caspase-8, without TRAIL, luminescence viability, without TRAIL, mean of runs, at 10 µM
Readout Kind: activity (%)
One number for each entry, in %.

Solved cases below.
Compound	Quantity Unit	activity
O=C(CCl)N=c1sccn1Cc1cccc2ccccc12	%	99.1
FC(F)(F)c1cc(CCN2CCNC[C@@H]2CC2CCCCC2)cc(C(F)(F)F)c1	%	84.2
COc1ccc(C(=O)Nc2ccc3[nH]ncc3c2)cc1	%	77.1
C(=C\c1ccco1)/c1nc2ccccc2[nH]1	%	31.6
COc1ccc(-n2nc3cc(C)c(NC(C)=O)cc3n2)cc1	%	75.7
O=C(CCl)Nc1ccc(Oc2cnc3ccccc3n2)cc1	%	98.5
COc1ccc(-c2nc(-c3ccccc3)no2)c(OC)c1	%	80.7
COc1ccc(C(=O)Nc2ccccc2C(=O)N/N=C/c2ccccn2)cc1OC	%	59.5

I'm hoping you can list activity for every compound here, please.
1. Cc1cccc(-n2ncc3c(NC4CCCCC4)ncnc32)c1
2. CC(OC(=O)c1cc(O)c2ccccc2c1O)C(=O)Nc1ccc(C(N)=O)cc1 (stereo unspecified)
3. Cn1cccc1/C=C1\CCc2ccccc2C1=O

54.5
49.2
51.8

Field: activity. Fill in for each record below.
1. Cn1c(N/N=C/c2cc3ccccc3nc2Cl)nc2ccccc21
2. CCN(CC)c1ccc(NC(=O)Nc2ccccc2)cc1
3. CC(=C/c1ccccc1)/C=N/NC(=O)c1cccs1
4. CCC1CCCCN1Cc1nc(Cc2ccccc2Cl)no1 (stereo unspecified)

94
47
51.2
-33.1

---

# Experimental Details: inhibition of Brca1/Bard1 split-luciferase complementation, confirmation, counter-screen for Mdm2/MdmX interaction inhibitor project, luminescence, single concentration (AID 504668)
# Settings: Brca1/Bard1 bimolecular luciferase complementation counterscreen, at 8 µM, stronger effect = higher value
Assign class by inhibition: not lower than 30% means y; lower than 30% means n.

Example entries and their recorded answers appear below.
Compound	Discrete Label
CC(=O)Nc1ccc(NC2=Nc3ccccc3N3C2=Nc2c(c(C)nn2-c2ccccc2)C3c2ccccc2)cc1 (stereo not given)	y
Oc1ccc(CNc2ccc(F)cc2)c2cccnc12	y
O=C(/C=C/c1ccccc1)NC(NC(=S)Nc1ccc(Cl)cc1Cl)C(Cl)(Cl)Cl (stereo not given)	n
CC(C)CN=C(NS(=O)(=O)c1ccccc1)C(Cl)(Cl)Cl	y
CCCNC(=O)c1ccc2c(=O)c(O)c(-c3cccc(Br)c3)[nH]c2c1	y
COc1cc2c(ccc3cc(OC)c(OC)c(O)c32)cc1O	y
C=C(C(=O)Oc1ccccc1C(C)(C)C)c1ccccc1	y
COc1ccc(C(=O)Nc2nc3c(s2)CCCC3)cc1S(=O)(=O)N1CCCc2ccccc21	n

Could you verify whether the entry "O=[N+]([O-])c1cc(-c2nc(-c3ccncc3)no2)ccc1Cl" shows inhibition of no less than 30%? n

Kindly determine if inhibition recorded for "CCN(CC)C(=O)N1c2ccccc2C=Cc2ccccc21" is above or exactly 30%. y

Kindly determine if inhibition recorded for "CN(C)CCCN(C(=O)c1ccc(C(=O)c2ccccc2)cc1)c1nc2cc3c(cc2s1)OCO3" is above or exactly 30%. y

Test whether the compound "CCCSc1nnc(NC(=O)Nc2ccc(F)cc2)s1" records inhibition of 30% or higher. n

Textbook exercise: given the entry "C/C(=N\Nc1nc(-c2ccccn2)nc2ccccc12)c1ccc(F)cc1" , state whether its inhibition is greater than or equal to 30%. y

The values you see were collected from PubChem BioAssay.
